Taken from patent US9474783B2.

System: PANC1 cells
Experiment: In vitro pancreatic cancer cell line growth (cell density, optical density)
Assay type: cell-based, Human
Conditions: Homo sapiens, PANC-1; PANC1 cells at 72H
reported.property: pEC50
Scale: pEC50 equals -log10([C]), with [C] in mol/L.

**Query** Report measured pEC50 on PANC1 cells; entry: COc1cccc2c1C(=O)c1c(O)c3c(c(O)c1C2=O)C[C@@](O)(C(=O)CO)C[C@@H]3O[C@H]1C[C@H](N)[C@H](O)[C@H](C)O1 [doxorubicin, reference compound]
**Result** 5.60
